Hello, the source for this data is patent US9745335B2, in case you need it.

# System: Candida albicans ATCC 10231
# Assay: antifungal activity in vitro, serial dilution in RPMI 1640
# Assay type: cell-based
Some molecules, each annotated with its measured Antifungal activity MIC.
Output spec: scalar in µg/mL, unitless text.

Record excerpt, results attached:
INSERT INTO assay_data (molecule, readout, unit_tag, measured_number) VALUES
  ('C[C@@H]1[C@H](O)[C@@H](C)/C=C/C=C/C=C/C=C/C=C/C=C/C=C/[C@H](O[C@@H]2O[C@H](C)[C@@H](O)[C@H](NC(=S)Nc3ccccc3)[C@@H]2O)C[C@@H]2O[C@](O)(C[C@@H](O)C[C@@H](O)[C@H](O)CC[C@@H](O)C[C@@H](O)CC(=O)O[C@H]1C)C[C@H](O)[C@H]2C(=O)O [Compound A23, N-[(3-phenyl)-thioureidyl]amphotericin B]', 'Antifungal activity MIC', 'µg/mL', 4),
  ('C[C@@H]1[C@H](O)[C@@H](C)/C=C/C=C/C=C/C=C/C=C/C=C/C=C/[C@H](O[C@@H]2O[C@H](C)[C@@H](O)[C@H](NC(=S)Nc3cccnc3)[C@@H]2O)C[C@@H]2O[C@](O)(C[C@@H](O)C[C@@H](O)[C@H](O)CC[C@@H](O)C[C@@H](O)CC(=O)O[C@H]1C)C[C@H](O)[C@H]2C(=O)O', 'Antifungal activity MIC', 'µg/mL', 4),
  ('C[C@@H]1[C@H](O)[C@@H](C)/C=C/C=C/C=C/C=C/C=C/C=C/C=C/[C@H](O[C@@H]2O[C@H](C)[C@@H](O)[C@H](NC(=S)NCCN3CCCC3)[C@@H]2O)C[C@@H]2O[C@](O)(C[C@@H](O)C[C@@H](O)[C@H](O)CC[C@@H](O)C[C@@H](O)CC(=O)O[C@H]1C)C[C@H](O)[C@H]2C(=O)O', 'Antifungal activity MIC', 'µg/mL', 2),
  ('C[C@@H]1[C@H](O)[C@@H](C)/C=C/C=C/C=C/C=C/C=C/C=C/C=C/[C@H](O[C@@H]2O[C@H](C)[C@@H](O)[C@H](NC3CC(=O)N(c4ccc(Br)cc4)C3=O)[C@@H]2O)C[C@@H]2O[C@](O)(C[C@@H](O)C[C@@H](O)[C@H](O)CC[C@@H](O)C[C@@H](O)CC(=O)O[C@H]1C)C[C@H](O)[C@H]2C(=O)O (stereo partly drawn)', 'Antifungal activity MIC', 'µg/mL', 4),
  ('C[C@@H]1[C@H](O)[C@@H](C)/C=C/C=C/C=C/C=C/C=C/C=C/C=C/[C@H](O[C@@H]2O[C@H](C)[C@@H](O)[C@H](NC3CC(=O)N(c4ccc([N+](=O)[O-])cc4)C3=O)[C@@H]2O)C[C@@H]2O[C@](O)(C[C@@H](O)C[C@@H](O)[C@H](O)CC[C@@H](O)C[C@@H](O)CC(=O)O[C@H]1C)C[C@H](O)[C@H]2C(=O)O (stereo partly drawn)', 'Antifungal activity MIC', 'µg/mL', 4);

Turning now to a further record.
The recorded Antifungal activity MIC for entry "C[C@@H]1[C@H](O)[C@@H](C)/C=C/C=C/C=C/C=C/C=C/C=C/C=C/[C@H](O[C@@H]2O[C@H](C)[C@@H](O)[C@H](NC(=O)[C@H](N)CC(=O)OC(C)(C)C)[C@@H]2O)C[C@@H]2O[C@](O)(C[C@@H](O)C[C@@H](O)[C@H](O)CC[C@@H](O)C[C@@H](O)CC(=O)O[C@H]1C)C[C@H](O)[C@H]2C(=O)O" equals 4

====

Reported values of Antifungal activity MIC for individual entries
# System: Candida glabrata DSM 11226
# Assay: antifungal activity in vitro, serial dilution in RPMI 1640
# Assay type: cell-based
Unit µg/mL implied. Number only.

The following molecules have reported results that may help.
INSERT INTO assay_data (molecule, measured_number) VALUES
  ('C[C@@H]1[C@H](O)[C@@H](C)/C=C/C=C/C=C/C=C/C=C/C=C/C=C/[C@H](O[C@@H]2O[C@H](C)[C@@H](O)[C@H](NC(=S)Nc3ccccc3)[C@@H]2O)C[C@@H]2O[C@](O)(C[C@@H](O)C[C@@H](O)[C@H](O)CC[C@@H](O)C[C@@H](O)CC(=O)O[C@H]1C)C[C@H](O)[C@H]2C(=O)O [Compound A23, N-[(3-phenyl)-thioureidyl]amphotericin B]', 8),
  ('C[C@@H]1[C@H](O)[C@@H](C)/C=C/C=C/C=C/C=C/C=C/C=C/C=C/[C@H](O[C@@H]2O[C@H](C)[C@@H](O)[C@H](NC3CC(=O)N(CCO)C3=O)[C@@H]2O)C[C@@H]2O[C@](O)(C[C@@H](O)C[C@@H](O)[C@H](O)CC[C@@H](O)C[C@@H](O)CC(=O)O[C@H]1C)C[C@H](O)[C@H]2C(=O)O (stereo partly drawn) [Compound A8]', 8);

Entry C[C@@H]1[C@H](O)[C@@H](C)/C=C/C=C/C=C/C=C/C=C/C=C/C=C/[C@H](O[C@@H]2O[C@H](C)[C@@H](O)[C@H](NC(=O)C(N)Cc3ccccc3F)[C@@H]2O)C[C@@H]2O[C@](O)(C[C@@H](O)C[C@@H](O)[C@H](O)CC[C@@H](O)C[C@@H](O)CC(=O)O[C@H]1C)C[C@H](O)[C@H]2C(=O)O (stereo partly drawn) [Compound A38, N-o-fluorophenylalanylamphotericin B] ; Antifungal activity MIC = 4

====

Reported values of Antifungal activity MIC for individual entries
# System: Candida glabrata DSM 11226
# Assay: antifungal activity in vitro, serial dilution in RPMI 1640
# Type: cell-based
Dear colleague, please send the value followed by its unit.

Example entries and their recorded answers appear below.
INSERT INTO measurements (compound, result) VALUES
  ('C[C@@H]1[C@H](O)[C@@H](C)/C=C/C=C/C=C/C=C/C=C/C=C/C=C/[C@H](O[C@@H]2O[C@H](C)[C@@H](O)[C@H](NC3CC(=O)N(Cc4ccccc4)C3=O)[C@@H]2O)C[C@@H]2O[C@](O)(C[C@@H](O)C[C@@H](O)[C@H](O)CC[C@@H](O)C[C@@H](O)CC(=O)O[C@H]1C)C[C@H](O)[C@H]2C(=O)O (stereo partly drawn)', '8 µg/mL'),
  ('C[C@@H]1[C@H](O)[C@@H](C)/C=C/C=C/C=C/C=C/C=C/C=C/C=C/[C@H](O[C@@H]2O[C@H](C)[C@@H](O)[C@H](NC3CC(=O)N(c4ccc([N+](=O)[O-])cc4)C3=O)[C@@H]2O)C[C@@H]2O[C@](O)(C[C@@H](O)C[C@@H](O)[C@H](O)CC[C@@H](O)C[C@@H](O)CC(=O)O[C@H]1C)C[C@H](O)[C@H]2C(=O)O (stereo partly drawn)', '4 µg/mL'),
  ('C[C@@H]1[C@H](O)[C@@H](C)/C=C/C=C/C=C/C=C/C=C/C=C/C=C/[C@H](O[C@@H]2O[C@H](C)[C@@H](O)[C@H](NC(=S)NCc3ccncc3)[C@@H]2O)C[C@@H]2O[C@](O)(C[C@@H](O)C[C@@H](O)[C@H](O)CC[C@@H](O)C[C@@H](O)CC(=O)O[C@H]1C)C[C@H](O)[C@H]2C(=O)O', '8 µg/mL'),
  ('C[C@@H]1[C@H](O)[C@@H](C)/C=C/C=C/C=C/C=C/C=C/C=C/C=C/[C@H](O[C@@H]2O[C@H](C)[C@@H](O)[C@H](NC(=O)[C@H](N)COC(C)(C)C)[C@@H]2O)C[C@@H]2O[C@](O)(C[C@@H](O)C[C@@H](O)[C@H](O)CC[C@@H](O)C[C@@H](O)CC(=O)O[C@H]1C)C[C@H](O)[C@H]2C(=O)O', '4 µg/mL'),
  ('C[C@@H]1[C@H](O)[C@@H](C)/C=C/C=C/C=C/C=C/C=C/C=C/C=C/[C@H](O[C@@H]2O[C@H](C)[C@@H](O)[C@H](NC(=O)[C@H](N)CC(=O)OC(C)(C)C)[C@@H]2O)C[C@@H]2O[C@](O)(C[C@@H](O)C[C@@H](O)[C@H](O)CC[C@@H](O)C[C@@H](O)CC(=O)O[C@H]1C)C[C@H](O)[C@H]2C(=O)O', '4 µg/mL');

Continue with the next compound.
Short answer for C[C@@H]1[C@H](O)[C@@H](C)/C=C/C=C/C=C/C=C/C=C/C=C/C=C/[C@H](O[C@@H]2O[C@H](C)[C@@H](O)[C@H](NC3CC(=O)N(CC(C)(C)CN(C)C)C3=O)[C@@H]2O)C[C@@H]2O[C@](O)(C[C@@H](O)C[C@@H](O)[C@H](O)CC[C@@H](O)C[C@@H](O)CC(=O)O[C@H]1C)C[C@H](O)[C@H]2C(=O)O (stereo partly drawn) : Antifungal activity MIC was 4 µg/mL
